Origin of measurements: patent US5434186A

Listing: log10(Ki) of selected compounds
Target: LTB4 Receptor (Homo sapiens, UniProt Q15722)
Construct: Isolated human neutrophils in Gey's salt solution; endogenous in cells
Sequence (Q15722 whole entry): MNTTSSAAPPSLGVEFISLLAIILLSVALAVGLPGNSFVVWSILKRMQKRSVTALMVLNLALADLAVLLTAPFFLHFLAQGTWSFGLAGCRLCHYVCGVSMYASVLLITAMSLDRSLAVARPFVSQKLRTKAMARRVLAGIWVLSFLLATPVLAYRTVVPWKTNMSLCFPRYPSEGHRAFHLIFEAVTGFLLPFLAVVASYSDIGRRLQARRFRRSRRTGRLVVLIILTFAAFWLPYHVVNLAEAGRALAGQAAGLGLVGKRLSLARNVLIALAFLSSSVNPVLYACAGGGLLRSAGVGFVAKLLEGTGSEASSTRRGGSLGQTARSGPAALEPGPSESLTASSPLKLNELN
Test: LTB4 Receptor Binding Assay (inhibition of 3H-LTB4 binding, human neutrophils)
Details: 0.5 nM 3H-LTB4, 45 minutes on ice, isolated human neutrophils
measured.property: log10(Ki) (log10 of the value in nM)

{"compound": "CCCc1c(OCCCCCCc2cccc(OCC(=O)O)c2CCC(=O)O)ccc2c1OCCC2=O [Example 152]", "measured.property": "log10(Ki)", "result.value": 0.00}
{"compound": "CCCc1c(OCCCCCOc2ccccc2CCCC(=O)O)ccc2c1OCCC2=O [Example 145]", "measured.property": "log10(Ki)", "result.value": 1.48}
{"compound": "CCCc1c(OCCCCCOc2ccc(CCCCC(=O)O)cc2CCC(=O)O)ccc2c1OCCC2=O [Example 215]", "measured.property": "log10(Ki)", "result.value": 0.48}
{"compound": "CCCc1c(OCCCCCCc2ccc(CCCCC(=O)O)cc2CCC(=O)O)ccc2c1OCCC2=O [Example 219]", "measured.property": "log10(Ki)", "result.value": 0.00}
{"compound": "CCCc1c(OCc2cccc(COc3ccccc3CCC(=O)O)c2)ccc2c1OCCC2=O [Example 39]", "measured.property": "log10(Ki)", "result.value": 2.00}
{"compound": "CCCc1c(OCCCCCOc2cccc3cc(C(=O)O)oc23)ccc2c1OCCC2=O [Example 19]", "measured.property": "log10(Ki)", "result.value": 2.40}
{"compound": "CCCc1c(OCCCCCCCCOc2ccc(C(=O)c3cccc(C(=O)O)c3)cc2CCC(=O)O)ccc2c1OCCC2=O [Example 83]", "measured.property": "log10(Ki)", "result.value": 0.48}
{"compound": "CCCc1c(OCCCCCCOc2ccc(C(=O)c3cccc(C(=O)O)c3)cc2CCC(=O)O)ccc2c1OCCC2=O [Example 22]", "measured.property": "log10(Ki)", "result.value": 0.48}
{"compound": "O=C(O)CCCCCOc1cccc(CCCCCCOc2ccc3c(c2CCCc2ccccc2)OCCC3=O)c1CCC(=O)O [Example 200]", "measured.property": "log10(Ki)", "result.value": 0.00}
{"compound": "CCCc1c(OCCCCCOc2ccccc2CCC(=O)O)ccc2c1OCC2=O [Example 40]", "measured.property": "log10(Ki)", "result.value": 1.88}
